All values here come from PubChem BioAssay (NCI).

The entries below come with measured growth values attached.
system: IGROV1 ovarian; assay: NCI-60 one-dose screen, 48 h (100 = growth as untreated, 0 = no growth, -100 = all killed); settings: 10 µM unless noted
Compounds without any hit were thinned out: in the full panel of roughly 83,000, 20% have a hit. Active and inactive are the calls of the source. Rule for the calls: active = growth percent below 10; inactive = the rest.

Give me measured growth, please, for this compound: "O=C(Cc1ccc(/C=C/C(=O)c2ncc[nH]2)cc1)Nc1ccc(Br)cc1"
8.48% (active)

###

tested on: SR leukemia; assay: NCI-60 one-dose screen, 48 h (100 = growth as untreated, 0 = no growth, -100 = all killed); conditions: 10 µM unless noted
About 83,000 compounds went through this panel and 20% of them were active in at least one assay; those are over-represented in the sample as a whole.
readout.name: growth (%)
Number only, in %; omit the unit.

COc1cc2c3c(c1)nc(C)n3CCC2; 101
CC(C)(C)c1ccc(Cn2cc(CSc3nc4ccccc4s3)nn2)cc1; 98.7
COc1cc2c(c(OC)c1)C1c3ccccc3NC(=O)N1CC2 (centres undefined); 13.2
CC(=O)Nc1cccc(-n2c(=O)n(C3CC3)c(=O)c3c(Nc4ccc(I)cc4F)n(C)c(=O)c(C)c32)c1; 46.4

Give me measured growth, please, for this compound: "O=C(Nc1cn[nH]c1-c1nc2ccc(CN3CCOCC3)cc2[nH]1)NC1CC1"
-11.9

Give me measured growth, please, for this compound: "CCOC(=O)c1sc(NC(=O)COc2ccc(/C=C3\Cc4ccc(Cl)cc4C3=O)cc2)nc1C"
103

Give me measured growth, please, for this compound: COC(=O)C1=C(C(=O)OC)C23C=C(C)C1C2=C(C)C1(CC1)[C@@](C)(O)C3=O (some centres undefined)
66.6

Give me measured growth, please, for this compound: "C=C1C(=O)O[C@H]2[C@H]1CC/C(CNC(=O)c1cc3cc(OC)ccc3[nH]1)=C\CC[C@@]1(C)O[C@@H]21"
-0.374

Give me measured growth, please, for this compound: "COc1cccc(NC(=O)Nc2ccc(Nc3ncnc4sc5c(c34)CCN(C(=O)CCl)C5)cc2)c1"
77.8

Give me measured growth, please, for this compound: "Cc1cnc(Nc2ccc(OCCN3CCCC3)cc2)nc1Nc1cccc(S(=O)(=O)NC(C)(C)C)c1"
-11.4

Give me measured growth, please, for this compound: CC(=O)OC1Oc2ccccc2-c2oc(=O)c(-c3cc4ccc(N(C)C)cc4oc3=O)cc21 (centres undefined)
-19.9

Give me measured growth, please, for this compound: "COc1cnc2c(c1)C(=O)c1c-2n(CCCN2CCC(N)CC2)c(=O)c2cc([N+](=O)[O-])ccc12"
2.78

Give me measured growth, please, for this compound: "CC(C)(C)CC(C)(C)Nc1c(-c2c(O)c3ccccc3oc2=O)nc2c(Cl)cc(C(F)(F)F)cn12"
104

Give me measured growth, please, for this compound: O=C1C=CC2(NN=C(c3ccccc3)N2c2cccc(Cl)c2)C(Cl)=C1 (centres undefined)
67.3

###

tested on: NCI-H460 lung; experiment: NCI-60 one-dose screen, 48 h; conditions: 10 µM unless noted
The panel holds about 83,000 compounds, 20% with a hit somewhere; the sample as a whole holds those more often. The source made the active and inactive calls. Rule for the calls: active = growth percent below 10; inactive = the rest.
# valid calls are Y = active, N = inactive; nothing else

Illustrative cases are given below, each with its answer.
CCN(CC)CCCC(C)Nc1cc(-c2ccc(C(F)(F)F)cc2)c(C#N)c2nc3ccccc3n12 (centres undefined); Y
Nc1nc(=S)c2ncn(C3OC(COC(=O)c4ccc(Cl)cc4)C(OC(=O)c4ccc(Cl)cc4)C3OC(=O)c3ccc(Cl)cc3)c2[nH]1 (centres undefined); N
O=CC(OC(=O)c1ccccc1)C(OC(=O)c1ccccc1)C(COC(c1ccccc1)(c1ccccc1)c1ccccc1)OC(=O)c1ccccc1 (centres undefined); N

Okay, next one:
What call does the record list for "O=c1[nH]c(N2CCOCC2)nc2scc(-c3ccccc3)c12" ?
N
